- system-name: WRN (Homo sapiens, UniProt Q14191)
- Construct: A His-tagged construct of WRN (AA S2-S1235) was produced and used for the ATPase assay; made in house; host or cells: Sf9 insect cells (baculovirus, pFastBac1)
- Sequence (Q14191 2-1235): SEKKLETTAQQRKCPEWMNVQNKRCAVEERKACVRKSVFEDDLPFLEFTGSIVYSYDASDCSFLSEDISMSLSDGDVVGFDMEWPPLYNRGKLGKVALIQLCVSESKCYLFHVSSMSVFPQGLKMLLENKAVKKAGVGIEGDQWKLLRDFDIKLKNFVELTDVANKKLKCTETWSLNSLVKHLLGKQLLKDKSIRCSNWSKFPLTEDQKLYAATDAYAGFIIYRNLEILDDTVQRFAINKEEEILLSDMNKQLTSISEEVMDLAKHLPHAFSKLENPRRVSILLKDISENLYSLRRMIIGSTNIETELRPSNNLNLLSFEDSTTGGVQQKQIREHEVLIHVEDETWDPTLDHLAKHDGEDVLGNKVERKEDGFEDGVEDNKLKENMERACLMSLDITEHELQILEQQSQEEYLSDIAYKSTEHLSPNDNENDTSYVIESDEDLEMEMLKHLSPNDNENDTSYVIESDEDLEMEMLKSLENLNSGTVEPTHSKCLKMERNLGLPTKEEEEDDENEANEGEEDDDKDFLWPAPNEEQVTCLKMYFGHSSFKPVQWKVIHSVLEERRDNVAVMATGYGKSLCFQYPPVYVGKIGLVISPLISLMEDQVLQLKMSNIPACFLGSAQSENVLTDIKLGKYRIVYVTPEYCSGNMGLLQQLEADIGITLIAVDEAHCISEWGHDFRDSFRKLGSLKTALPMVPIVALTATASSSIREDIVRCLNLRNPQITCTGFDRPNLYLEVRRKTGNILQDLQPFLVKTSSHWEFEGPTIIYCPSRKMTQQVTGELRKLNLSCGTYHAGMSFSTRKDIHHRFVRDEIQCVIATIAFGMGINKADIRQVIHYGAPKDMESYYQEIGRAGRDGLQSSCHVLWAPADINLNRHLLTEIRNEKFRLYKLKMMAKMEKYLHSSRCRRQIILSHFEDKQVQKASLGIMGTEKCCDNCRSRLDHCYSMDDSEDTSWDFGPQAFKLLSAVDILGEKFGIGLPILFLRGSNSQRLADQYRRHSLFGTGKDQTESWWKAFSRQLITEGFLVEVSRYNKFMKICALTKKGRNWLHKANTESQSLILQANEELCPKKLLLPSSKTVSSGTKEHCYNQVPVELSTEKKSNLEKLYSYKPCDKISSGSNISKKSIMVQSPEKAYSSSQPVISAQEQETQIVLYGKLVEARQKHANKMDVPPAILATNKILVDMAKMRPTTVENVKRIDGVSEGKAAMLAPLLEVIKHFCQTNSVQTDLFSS
- measurement-description: WRN Helicase activity assay (fluorescence DNA unwinding)
- Assay type: biochemical
- stated-conditions: 1-hr pre-incubation with enzyme; 25 nM forked dsDNA, 100 μM ATP, 1 nM WRN; geometric mean of at least 2 replicates
readout: IC50

Consider the reported IC50 for these compounds:
| smiles-text | system-name | IC50 |
| --- | --- | --- |
| C=CC(=O)Nc1ccccc1-c1c(C)nc2n(CC(=O)Nc3ccc(C(F)(F)F)cc3)c(CC)c(-c3ccc(C(=O)NC)nc3)c(=O)n12 | WRN (Homo sapiens, UniProt Q14191) | < 100 nM |
| C=CS(=O)(=O)Nc1ccccc1-c1c(C)nc2n(CC(=O)Nc3ccc(F)cc3)c(CC)c(-c3ccccc3)c(=O)n12 | WRN (Homo sapiens, UniProt Q14191) | < 100 nM |

# evaluate next
Data request: Given `C=CC(=O)Nc1ccccc1-c1c(CC)n(CC(=O)Nc2ccc(C(F)(F)F)cc2)c2nc(C)c(C)n2c1=O` , state its recorded IC50.
Data returned: 100 to 500 nM
